Values compiled from patent US20140186365A1.

test.system: Mouse Serum Albumin (mouse) (UniProt P07724)
experiment.summary: BLI (Octet Red), MSA on sensor tips, VH domain in solution, 1:1 fit
quantity.kind: pKd
Remember the convention: pKd equals -log10 of concentration in molar.

Example results:
VH-3E11 (protein) VH: QVQLQQSGPGLVKPSQTLSLTCAISGDSVSGNSAAWNWIRQSPSRGLEWLGRTYYRSKWYIGYAASLQSRLAINADTSKNQLSLRLSSVTPEDTAVYYCVGRHYSGHSGAFDTWGHGTMVTVSSSASGAGS :: 7.41
VH-3B11 (protein) VH: EVQLVQSGAEVKKPGESLKISCKGSGYSFTSYWIGWVRQMPGKGLEWMGIVYPGDSDTRYSPSFQGQVTISAGKSISTAYLQWSSLKASDTAMYYCARPSMGATTWISAFDIWGQGTTVTVSSSASGAGS :: 8.02
VH-3C2 (protein) VH: QVQLQQSGPGLVKPSQTLSLTCAISGDSVSSKSAAWNWIRQSPSRGLEWLGRTYYRSKWYNDYVVSLRSRITVSPDTSKNQFSLQLNSVTPEDTAMYYCARTRGHIDLWGRGTLVTVSSSASGAGS :: 7.50

Q: Which pKd is listed for VH-4D6 (protein) VH: EVQLVQSGAEVKKPGESLKISCKGSGYSFTSYWIGWVRQMPGKGLEWMGIIYPGDSDTRYSPSFQGQVTISADKSISTAYLQWSSLKASDTAMYYCARLDCSGGSCYYYYYGMDVWGQGTTVTVSSSASGAGS ?
Result: 7.90

Q: Param item = VH-1C5 (protein) VH: QVQLQQSGPGLVKPSQTLSLTCAISGDSVSSNSAAWNWIRQSPSRGLEWLGRTYYRSKWYNDYAVSVKSRITINPDTSKNQFSLQLNSVTPEDTAVYYCARTPSTGTLDCWGRGTLVTVSSSASGAGS ; retrieve measured pKd.
Result: 8.20
